The origin of these recorded values is paper PMC4585835.

Test: Pharmacokinetics in rats, i.v.
Type: in vivo
Settings: SD, plasma, iv, 1 umol/kg; rat, 1 μmol/kg i.v., n = 5; read-out: Vss
assay-metric: Vd (L/kg)
Write the answer as a number in L/kg, unit excluded.

Exercise: For CC[C@H](C)[C@H](NC(=O)[C@H](CCC(=O)O)NC(=O)[C@H](CCC(=O)O)NC(=O)[C@H](Cc1ccccc1)NC(=O)[C@H](CC(=O)O)NC(=O)CNC(=O)[C@H](CC(N)=O)NC(=O)CNC(=O)CNC(=O)CNC(=O)CNC(=O)[C@@H]1CCCN1C(=O)[C@H](CCCNC(=N)N)NC(=O)[C@@H]1CCCN1C(=O)[C@H](N)Cc1ccccc1)C(=O)N1CCC[C@H]1C(=O)N[C@@H](CCC(=O)O)C(=O)N[C@@H](CCC(=O)O)C(=O)N[C@@H](Cc1ccc(O)cc1)C(=O)N[C@@H](CC(C)C)C(=O)O [Hirulog-1, reference compound] , what is its reported Vd?
Key: 0.522
